assay: Biodistribution of 153Sm complexes in rats (% injected dose per organ, NaI scintillation counting after tail vein injection); type: in vivo, Sprague Dawley rats; settings: ratio of average % injected dose, 2 hours post injection
Listed next: entries and their corresponding Ratio Bone/Liver.

SMILES_REPRESENTATION | Ratio Bone/Liver
O=C([O-])CN1Cc2cccc(n2)CN(CC(=O)[O-])Cc2cccc(n2)C1.[153Sm+3] | 41
O=P([O-])([O-])CN1Cc2cccc(n2)CN(CP(=O)([O-])[O-])Cc2cccc(n2)C1.[153Sm+3] | 16
CCOP(=O)([O-])CN1Cc2cccc(n2)CN(CP(=O)([O-])OCC)Cc2cccc(n2)C1.[153Sm+3] | 7
O=C([O-])CN1Cc2cccc(n2)CN(CC(=O)[O-])Cc2cccc(n2)CN(CC(=O)[O-])Cc2cccc(n2)C1.[153Sm+3] | 3

====

assay: Biodistribution of 153Sm complexes in rats (% injected dose per organ, NaI scintillation counting after tail vein injection); format: in vivo, Sprague Dawley rats; details: ratio of average % injected dose, 2 hours post injection

SMILES_REPRESENTATION | Ratio Bone/Blood
O=C([O-])CN1Cc2cccc(n2)CN(CC(=O)[O-])Cc2cccc(n2)C1.[153Sm+3] | 65
CCOP(=O)([O-])CN1Cc2cccc(n2)CN(CP(=O)([O-])OCC)Cc2cccc(n2)C1.[153Sm+3] | 88
O=P([O-])([O-])CN1Cc2cccc(n2)CN(CP(=O)([O-])[O-])Cc2cccc(n2)C1.[153Sm+3] | 69
O=C([O-])CN1Cc2cccc(n2)CN(CC(=O)[O-])Cc2cccc(n2)CN(CC(=O)[O-])Cc2cccc(n2)C1.[153Sm+3] | 3

====

experiment: Biodistribution of 153Sm complexes in rats (% injected dose per organ, NaI scintillation counting after tail vein injection); type: in vivo, Sprague Dawley rats; settings: i.v. tail vein, 2 hours post injection, femur x 25
MEASURED_PROPERTY: Biodistribution: Bone (% INJECTED DOSE)

SMILES_REPRESENTATION | UNIT_STRING | DATA_VALUE
O=P([O-])([O-])CN1Cc2cccc(n2)CN(CP(=O)([O-])[O-])Cc2cccc(n2)C1.[153Sm+3] | % INJECTED DOSE | 60.08
O=C([O-])CN1Cc2cccc(n2)CN(CC(=O)[O-])Cc2cccc(n2)C1.[153Sm+3] | % INJECTED DOSE | 27.98
O=C([O-])CN1Cc2cccc(n2)CN(CC(=O)[O-])Cc2cccc(n2)CN(CC(=O)[O-])Cc2cccc(n2)C1.[153Sm+3] | % INJECTED DOSE | 1.495
CCOP(=O)([O-])CN1Cc2cccc(n2)CN(CP(=O)([O-])OCC)Cc2cccc(n2)C1.[153Sm+3] | % INJECTED DOSE | 39.82

====

test: Biodistribution of 153Sm complexes in rats (% injected dose per organ, NaI scintillation counting after tail vein injection); assay type: in vivo, Sprague Dawley rats; conditions: i.v. tail vein, 2 hours post injection
Parameter Biodistribution: Small Intestine: see the listing below.
MEASURED_PROPERTY: Biodistribution: Small Intestine

SMILES_REPRESENTATION | DATA_VALUE
O=C([O-])CN1Cc2cccc(n2)CN(CC(=O)[O-])Cc2cccc(n2)C1.[153Sm+3] | 0.80 % INJECTED DOSE
O=P([O-])([O-])CN1Cc2cccc(n2)CN(CP(=O)([O-])[O-])Cc2cccc(n2)C1.[153Sm+3] | 0.39 % INJECTED DOSE
O=C([O-])CN1Cc2cccc(n2)CN(CC(=O)[O-])Cc2cccc(n2)CN(CC(=O)[O-])Cc2cccc(n2)C1.[153Sm+3] | 1.426 % INJECTED DOSE
CCOP(=O)([O-])CN1Cc2cccc(n2)CN(CP(=O)([O-])OCC)Cc2cccc(n2)C1.[153Sm+3] | 0.33 % INJECTED DOSE
